molecular target: Serine/threonine-protein kinase mTOR (Homo sapiens, UniProt P42345); assay: Inhibition of human recombinant GST-tagged mTOR catalytic domain (1360 to 2549 residues) expressed in baculovirus expression system using GFP-4E-BP1 peptide as substrate incubated for 1 hr by LanthaScreen assay
Label scheme for Ki: bottom (below 20 nM), middle (20 nM to below 200 nM), top (200 nM or more)

Query string: In plain terms, what class is CC(C)n1nc(-c2ccc3oc(N)nc3c2)c2c(F)nc(N)nc21 ?
Result string: bottom

---

Field: IC50. Provide a value for each of the compounds that follow.
molecular target: mTORC2 (Homo sapiens, UniProt P42345); experiment: Inhibition of mTORC2 in human A431 cells assessed as AKT phosphorylation at S473 residue incubated for 3 hrs by HTRF assay
Answers are plain numbers, in nM.

Bench note, mTORC2 (Homo sapiens, UniProt P42345): CNc1nc2c(c(-c3ccc4oc(N)nc4c3)nn2C(C)C)c(=O)[nH]1 , IC50 reads 360

Bench note, mTORC2 (Homo sapiens, UniProt P42345): CC(C)n1nc(-c2ccc3oc(N)nc3c2)c2cnc(N)nc21 , IC50 reads 15

Bench note, mTORC2 (Homo sapiens, UniProt P42345): Cc1nc(N)nc2c1c(-c1ccc3oc(N)nc3c1)nn2C(C)C , IC50 reads 200

Kindly give each listed record's IC50.
1. CC(C)n1nc(-c2ccc3oc(N)nc3c2)c2c(N)nc(N)nc21
2. CC(C)n1nc(-c2ccc3oc(N)nc3c2)c2c(Br)nc(N)nc21
3. Cc1nc2c(c(-c3ccc4oc(N)nc4c3)nn2C(C)C)c(=O)[nH]1
4. CC(C)n1nc(-c2ccc3oc(N)nc3c2)c2c(Cl)nc(N)nc21
5. CC(C)n1nc(-c2ccc3oc(N)nc3c2)c2c(F)nc(N)nc21

Result string:
1: 11; 2: 60; 3: 90; 4: 20; 5: 80
